# tgt: recombinant human DP IV, wild type (human) (UniProt P27487)
# Sequence (P27487 other isoform, or with tags, fused parts or gaps): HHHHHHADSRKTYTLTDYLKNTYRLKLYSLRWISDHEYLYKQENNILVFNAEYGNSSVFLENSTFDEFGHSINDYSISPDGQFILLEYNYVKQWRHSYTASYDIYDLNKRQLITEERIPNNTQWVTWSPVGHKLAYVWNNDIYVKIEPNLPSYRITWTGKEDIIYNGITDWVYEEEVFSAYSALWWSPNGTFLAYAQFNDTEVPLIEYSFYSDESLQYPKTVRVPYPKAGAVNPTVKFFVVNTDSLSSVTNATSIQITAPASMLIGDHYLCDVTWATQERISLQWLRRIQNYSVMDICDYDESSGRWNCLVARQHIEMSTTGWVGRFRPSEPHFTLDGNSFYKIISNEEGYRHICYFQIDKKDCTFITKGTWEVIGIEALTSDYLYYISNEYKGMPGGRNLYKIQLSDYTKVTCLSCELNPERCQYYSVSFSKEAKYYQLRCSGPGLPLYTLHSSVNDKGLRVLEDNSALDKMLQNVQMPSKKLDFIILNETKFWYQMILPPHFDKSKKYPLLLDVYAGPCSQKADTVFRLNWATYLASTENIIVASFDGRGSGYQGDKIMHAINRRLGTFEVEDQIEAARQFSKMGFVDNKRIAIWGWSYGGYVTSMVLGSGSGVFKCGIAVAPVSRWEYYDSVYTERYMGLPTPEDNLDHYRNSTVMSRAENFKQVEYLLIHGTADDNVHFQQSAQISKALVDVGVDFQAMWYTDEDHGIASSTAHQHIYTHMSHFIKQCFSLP
# protocolDetails: MALDI-TOF MS, inhibition of DP IV-catalyzed truncation of the substrate PACAP-38 after preincubation with TFTSDY
assayReadout: Ki (µM)
# number only, unit µM dropped from output

Ask: What value of Ki has been recorded for this entry: TFTSDY [hexapeptide TFTSDY]
Result: 2.8
